Target: Serine protease HTRA1 (Homo sapiens) (UniProt Q92743)
Sequence (Q92743 whole entry, looked up): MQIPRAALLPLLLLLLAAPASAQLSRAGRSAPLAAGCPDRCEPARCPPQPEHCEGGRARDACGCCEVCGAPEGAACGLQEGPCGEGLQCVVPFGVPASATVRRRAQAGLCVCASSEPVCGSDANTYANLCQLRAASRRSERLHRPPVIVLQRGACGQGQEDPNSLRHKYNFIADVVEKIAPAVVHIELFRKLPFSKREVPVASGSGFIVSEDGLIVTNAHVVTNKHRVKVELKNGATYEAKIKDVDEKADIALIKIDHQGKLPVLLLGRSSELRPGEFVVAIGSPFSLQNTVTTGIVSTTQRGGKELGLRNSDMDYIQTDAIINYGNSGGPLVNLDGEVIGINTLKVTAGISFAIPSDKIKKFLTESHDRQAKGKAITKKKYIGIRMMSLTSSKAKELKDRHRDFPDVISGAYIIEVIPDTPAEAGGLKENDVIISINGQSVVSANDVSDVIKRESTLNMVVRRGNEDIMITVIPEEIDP
Test: inhibition of human HTRA1 peptidase – biochemical, fluorescence polarization, HTS, primary screen (AID 504803);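 also: 0% = enzyme with DMSO and 100% = wells lacking enzyme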
Details: recombinant HTRA1, FP-rhodamine activity-based probe, at 5.96 µM
Out of some 340,000 compounds screened, about 1,700 (0.5%) were called active. Rule as the data show it: active = inhibition above about 36%; inactive = the rest. The full list was thinned out, with actives kept by preference.
Outcome codes: TRUE (active), FALSE (inactive)

- Fc1ccccc1N=C1Nc2cccc3cccc1c23: FALSE
- C[C@H]1CN([C@@H](C)CO)S(=O)(=O)c2ccc(Br)cc2O[C@H]1CN(C)C(=O)c1cnccn1: FALSE
- Cc1ccc(-c2nc3ccc(Cl)cn3c2Cc2ccccc2)cc1: FALSE
- COc1ccccc1-c1nc(C(F)(F)F)c(OC)o1: FALSE
- Nc1cccc(OCCCCCOc2cccc(N)c2)c1: FALSE
- COc1ccc(/C=C/C(=O)c2cc(Br)ccc(=O)c2O)cc1: TRUE
- Cc1cc(/C=N/NC(=O)CC2(C)OCCO2)c(C)n1-c1ccc(Cl)c(Cl)c1: FALSE
- COc1ccccc1C1=Nc2cccc3cccc(c23)N1: TRUE
- O=C(CCCN1C(=O)C(c2ccccc2)Oc2cccnc21)Nc1ccccc1Br (configuration not stated): FALSE
- CCOC(=O)CC(NC(=O)C1c2ccccc2Oc2ccccc21)c1ccc(C)cc1 (configuration not stated): FALSE
- C[C@@H]1CN([C@@H](C)CO)C(=O)c2cc(Br)cnc2O[C@@H]1CN(C)C(=O)C1CCCCC1: FALSE
- COc1ccc(C(=O)c2oc3ccc(Br)cc3c2NC(C)=O)cc1: FALSE
- Cc1cc(/C=N/Nc2ccc([N+](=O)[O-])cn2)c(C)n1-c1cccc(C(=O)O)c1: TRUE
- CC(C)CNC(=O)C(=O)Nc1ccc(N(C)C)cc1: FALSE
- CCOc1cc(/C=N/NC(=O)c2ccncc2)cc(Br)c1O: FALSE
- CC(C)c1ccc(C=NNc2ccc([N+](=O)[O-])cn2)cc1: FALSE
- N#CC1(Nc2ccc3c4c(cccc24)CC3)CCCCC1: FALSE
- CCCN(CCC)C(=O)C1c2ccccc2Oc2ccccc21: TRUE
- O=C(OCc1ccccc1)N1CCC2CC1c1cc(N3CCN(S(=O)(=O)c4cc(Cl)cc(Cl)c4)CC3)ccc12 (configuration not stated): FALSE
- Cn1c(CCN2CCN(c3ccccn3)CC2)nc2cc(NS(=O)(=O)c3ccc(F)cc3)ccc21: FALSE
- CN1c2ccc(C=O)c3c(C=O)ccc(c23)N(C)C1(C)C: TRUE
- Cc1ccc(C=O)c([B-](F)(F)F)c1: FALSE

----------
Molecular target: Serine protease HTRA1 (Homo sapiens) (UniProt Q92743)
Assay: inhibition of human HTRA1 peptidase – biochemical, fluorescence polarization, HTS, primary screen (AID 504803);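 also: 0% = enzyme with DMSO and 100% = wells lacking enzyme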
Details: recombinant HTRA1, FP-rhodamine activity-based probe, at 5.96 µM, active compounds read high
Screen size: about 340,000 compounds; about 1,700 (0.5%) were called active. The list comes from a sample in which actives are over-represented; it also holds close analogues and randomly drawn compounds.
readout label: inhibition (%)

* CSC(=S)N/N=C/c1c[nH]c2ccccc12 | 48.9
* CC(C)N=C1CCCC1C(=S)SSC(=S)C1CCCC1=NC(C)C (stereo unspecified) | 13.4
* C[C@@H]1CN([C@H](C)CO)C(=O)CCCn2nncc2CO[C@@H]1CN(C)C(=O)OCc1ccccc1 | -3.03
* C[n+]1ccc(/C=C/c2c[nH]c3ccccc23)cc1 | 2.74
* COCC1CCCCN1C(=O)c1cc(COc2ccc(C)c(C)c2)on1 (stereo unspecified) | -4.09
* CC(C)[C@H](NC(=O)c1ccccc1F)C(=O)Nc1cccc(S(=O)(=O)N2CCOCC2)c1 | 0.83
* CCc1nc2c(=O)[nH]cnc2o1 | 5.91
* CCCCCCNC(=O)O[C@H]1CN(C(=O)OC(C)C)N(C(=O)OC(C)C)[C@@H]2CN(S(=O)(=O)c3ccc(C)cc3)C[C@]12O | -18.8
* Clc1ccc(C2=CSC3=Nc4cccc5cccc(c45)N23)cc1 | 44.2
* O=C(c1ccccc1)N1CCN(c2cc(-c3ccccc3)nc3cc(-c4cccc(Cl)c4)nn23)CC1 | -11.5
* COc1ncnc2c1ncn2CCCNCCN1CCOCC1 | 0.71

The reported measurements were obtained from PubChem BioAssay AID504803.
